# TARGET_OF_ASSAY: HER-2 protein (truncated) (Homo sapiens)
# Sequence (P04626 676-1245): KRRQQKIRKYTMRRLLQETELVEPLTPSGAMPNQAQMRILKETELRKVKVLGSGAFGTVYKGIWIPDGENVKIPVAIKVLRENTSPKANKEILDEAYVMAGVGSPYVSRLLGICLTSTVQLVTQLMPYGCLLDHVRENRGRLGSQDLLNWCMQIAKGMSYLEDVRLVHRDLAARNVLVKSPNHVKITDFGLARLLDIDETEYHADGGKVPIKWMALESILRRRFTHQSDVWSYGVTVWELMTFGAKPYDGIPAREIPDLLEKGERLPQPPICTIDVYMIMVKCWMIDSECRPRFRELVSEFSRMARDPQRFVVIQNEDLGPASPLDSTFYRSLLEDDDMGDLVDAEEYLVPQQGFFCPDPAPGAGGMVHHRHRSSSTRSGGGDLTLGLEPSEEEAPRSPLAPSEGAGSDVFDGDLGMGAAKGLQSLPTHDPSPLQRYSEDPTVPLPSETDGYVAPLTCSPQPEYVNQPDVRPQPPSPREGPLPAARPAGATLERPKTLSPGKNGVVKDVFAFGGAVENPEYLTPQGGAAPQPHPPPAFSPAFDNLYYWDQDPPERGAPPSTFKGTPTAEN
# ASSAY_PROTOCOL: BLI assay (bio-layer interferometry)
# CONDITION_SUMMARY: labeled compound, calculated by the Octet Red96 system
OBSERVED_PROPERTY: Kd

Value sought: Kd, system HER-2 protein (truncated) (Homo sapiens), item COc1ccc(C2CC(c3ccc4c(c3)OCCO4)=NN2C(N)=S)cc1OC (stereo not shown) . Result: 0.187 µM

* * *

# TARGET_OF_ASSAY: HER-2 (Homo sapiens, UniProt P04626)
# Sequence (P04626 676-1245): as above
# ASSAY_PROTOCOL: HER-2 autophosphorylation kinase assay (DELFIA/time-resolved fluorometry)
pIC50: −log10 of the molar value.
Decide by pIC50: equal to or exceeding 6 means yes (1), less means no (0).

Previously resolved entries follow.
| MOLECULE | ANSWER_LABEL |
| --- | --- |
| NC(=S)N1N=C(c2ccc3c(c2)OCCO3)CC1c1ccc(OCc2ccccc2)cc1 (stereo not drawn) | yes (1) |
| COc1cccc(C2CC(c3ccc4c(c3)OCCO4)=NN2C(N)=S)c1 (stereo not drawn) | no (0) |
| NC(=S)N1N=C(c2ccc3c(c2)OCCO3)CC1c1ccco1 (stereo not drawn) | no (0) |

Okay, next one:
Identify whether the reported pIC50 of the following molecule is 6 or greater: NC(=S)N1N=C(c2ccc3c(c2)OCCO3)CC1c1cccc2ccccc12 (stereo not drawn) yes (1)

* * *

# ASSAY_PROTOCOL: Cytotoxicity test (MTT), NIH-3T3
# Type: cell-based
# CONDITION_SUMMARY: mouse, NIH-3T3 mouse embryonic fibroblast cells, NIH3T3
Rule: measured GI50 at 24 h below 200 µM gets satisfied; anything equal to or greater than 200 µM gets not satisfied.

For orientation, consider the following solved cases.
| COMPOUND | ANSWER_LABEL |
| --- | --- |
| NC(=S)N1N=C(c2ccc3c(c2)OCCO3)CC1c1ccc(C(F)(F)F)cc1 (stereo not drawn) [Compound C17] | satisfied |
| COc1ccc(C2CC(c3ccc4c(c3)OCCO4)=NN2C(N)=S)cc1OC (stereo not drawn) [Compound C20] | not satisfied |
| NC(=S)N1N=C(c2ccc3c(c2)OCCO3)CC1c1ccc(Br)cc1 (stereo not drawn) [Compound C13] | satisfied |

Lab note: next compound to report on.
Please check: GI50 at 24 h for CSc1ccc(C2CC(c3ccc4c(c3)OCCO4)=NN2C(N)=S)cc1 (stereo not drawn) [Compound C15] , strictly under 200 µM or not? satisfied

* * *

For each of the compounds below, state its melting point.

Solved cases (5 shown):
| COMPOUND | MEASURED |
| --- | --- |
| NC(=S)N1N=C(c2ccc3c(c2)OCCO3)CC1c1ccccc1 (centres unmarked) [Compound C1] | 166 to 168 °C |
| NC(=S)N1N=C(c2ccc3c(c2)OCCO3)CC1c1c(F)cccc1F (centres unmarked) [Compound C18] | 208 to 209 °C |
| NC(=S)N1N=C(c2ccc3c(c2)OCCO3)CC1c1ccccc1F (centres unmarked) [Compound C4] | 169 to 171 °C |
| NC(=S)N1N=C(c2ccc3c(c2)OCCO3)CC1c1cccc2ccccc12 (centres unmarked) [Compound C2] | 214 to 216 °C |
| NC(=S)N1N=C(c2ccc3c(c2)OCCO3)CC1c1ccc(I)cc1 (centres unmarked) [Compound C14] | 259 to 261 °C |

Provide melting point for all items below, preserving their order.
1. NC(=S)N1N=C(c2ccc3c(c2)OCCO3)CC1c1ccc(OCc2ccccc2)cc1 (centres unmarked) [Compound C16]
2. NC(=S)N1N=C(c2ccc3c(c2)OCCO3)CC1c1ccco1 (centres unmarked) [Compound C19]

["197 to 199 °C", "174 to 175 °C"]

GET /value?item= NC(=S)N1N=C(c2ccc3c(c2)OCCO3)CC1c1cccc(Br)c1 (centres unmarked) [Compound C8] &field=melting point returns 247 to 249 °C

Data origin, for the record: paper PMC4897788
